- Test Target: hSERT (Homo sapiens, UniProt P31645)
- Sequence (P31645 whole entry): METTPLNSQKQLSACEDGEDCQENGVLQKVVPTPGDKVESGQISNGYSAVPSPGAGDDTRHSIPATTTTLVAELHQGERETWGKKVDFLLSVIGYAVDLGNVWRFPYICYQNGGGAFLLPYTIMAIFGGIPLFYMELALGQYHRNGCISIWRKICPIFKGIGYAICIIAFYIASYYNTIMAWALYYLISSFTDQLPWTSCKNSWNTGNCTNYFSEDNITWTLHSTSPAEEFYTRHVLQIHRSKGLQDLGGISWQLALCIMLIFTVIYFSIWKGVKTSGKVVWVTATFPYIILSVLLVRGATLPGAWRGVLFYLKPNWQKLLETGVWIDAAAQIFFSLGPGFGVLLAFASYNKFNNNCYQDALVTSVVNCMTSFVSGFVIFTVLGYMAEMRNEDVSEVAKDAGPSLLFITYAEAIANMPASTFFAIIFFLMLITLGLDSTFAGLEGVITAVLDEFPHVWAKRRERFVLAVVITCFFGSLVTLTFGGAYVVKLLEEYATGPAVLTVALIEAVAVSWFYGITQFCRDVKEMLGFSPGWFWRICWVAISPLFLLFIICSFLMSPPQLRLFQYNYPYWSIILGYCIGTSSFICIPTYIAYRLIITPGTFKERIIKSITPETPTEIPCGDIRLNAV
- Test Protocol: Dissociation assay with [3H]-citalopram and hSERT membrane preparations
- Format: binding
- Setup Conditions: estimated upper plateau of sigmoidal response curve: how many folds the off-rate of bound radioligand from SERT can be attenuated; N/A = No activity
Kindly state Max. Stability (maximum stabilization factor) for each of the entries shown.
One number for each entry.

* CC(C)OC(=O)c1cccc2ccccc12 | 16
* CCOC(=O)n1ccc2ccc(C)cc21 | 15
* N#CCSc1cccc2ccccc12 | 27
* O=C(OC1CCCC1)c1cccc2ccccc12 | 10
* OCCSc1cccc2ccccc12 [Example 15, 2-Hydroxyethyl-1-Naphthyl Sulphide] | 10.2

Let us examine a further case.
Given the compound C=CCSc1cccc2ccccc12 and test system hSERT (Homo sapiens, UniProt P31645), the measured Max. Stability (maximum stabilization factor) is 6.3

* * *

- Test Target: hSERT (Homo sapiens)
- Test Protocol: Dissociation assay with [3H]-citalopram and hSERT membrane preparations
- Type: binding
- Setup Conditions: estimated upper plateau of sigmoidal response curve: how many folds the off-rate of bound radioligand from SERT can be attenuated; N/A = No activity
Test Readout: Max. Stability (maximum stabilization factor)
Numbers only.

- CCNC(=O)c1cccc2ccccc12 [Example 10, 1-Naphthoic Acid Ethylamide]: 1.8
- CCCOc1cccc2ccccc12 [Example 21, 1-Propoxy-Naphthalene]: 3.9
- CCOC(=O)n1nnc2ccccc21 [Example 29]: 5.4
- CCOC(=O)n1cc(C)c2ccccc21 [Example 35]: 6

Each compound below has a reported value. Please supply its Max. Stability (maximum stabilization factor).
1. C#CCOC(=O)c1cccc2ccccc12 [Example 9, 1-Naphthoic Acid 2-Propynyl Ester]
2. O=C(OCCO)c1cccc2ccccc12 [Example 6, 1-Naphthoic Acid 2-Hydroxyethyl Ester]
3. CCOC(=O)n1ccc2ccccc21 [Example 24, Indole-1-Carboxylic Acid Ethyl Ester]

a:
1: 13; 2: 20; 3: 9

Each compound below has a reported value. Please supply its Max. Stability (maximum stabilization factor).
1. CSc1cccc2ccccc12 [Example 12, Methyl-[1]Naphthyl Sulphide]
2. CCOS(=O)(=O)c1cccc2ccccc12 [reference compound]

a:
1. 10
2. 3.1

* * *

- Test Target: hSERT (Homo sapiens)
- Test Protocol: Dissociation assay with [3H]-citalopram and hSERT membrane preparations
- Format: binding
- Setup Conditions: concentration of allosteric compound inducing 50% attenuation of the off-rate of the radioligand from SERT; 10 μM fluoxetine in dissociation buffer; read-out: EC50
pEC50: −log10 of the molar value.
Binary call on pEC50: met from 5 upward, not met beneath that.

These recorded examples may help you get a feel for the data.
• C#CCOC(=O)c1cccc2ccccc12 = not met
• C=CCOC(=O)c1cccc2ccccc12 = not met
• OCCSc1cccc2ccccc12 [Example 15, 2-Hydroxyethyl-1-Naphthyl Sulphide] = met
• CCCSc1cccc2ccccc12 = met
• CCOC(=O)n1ccc2ccc(Cl)cc21 = not met

q: Answer whether pEC50 of CCOC(=O)n1ccc2ccc(C)cc21 is greater than or equal to 5.
a: not met

q: Answer whether pEC50 of N#CCSc1cccc2ccccc12 is greater than or equal to 5.
a: met

q: Answer whether pEC50 of CCNC(=O)c1cccc2ccccc12 [Example 10, 1-Naphthoic Acid Ethylamide] is greater than or equal to 5.
a: not met

q: Answer whether pEC50 of CSc1cccc2ccccc12 [Example 12, Methyl-[1]Naphthyl Sulphide] is greater than or equal to 5.
a: not met

q: Answer whether pEC50 of C=CCSc1cccc2ccccc12 is greater than or equal to 5.
a: met

q: Answer whether pEC50 of O=C(OCCO)c1cccc2ccccc12 [Example 6, 1-Naphthoic Acid 2-Hydroxyethyl Ester] is greater than or equal to 5.
a: not met

q: Answer whether pEC50 of CCOC(=O)c1cccc2ccccc12 is greater than or equal to 5.
a: met

q: Answer whether pEC50 of Sc1cccc2ccccc12 [reference compound] is greater than or equal to 5.
a: not met

q: Answer whether pEC50 of C#CCSc1cccc2ccccc12 is greater than or equal to 5.
a: met

* * *

- Test Target: hSERT (Homo sapiens)
- Test Protocol: Dissociation assay with [3H]-citalopram and hSERT membrane preparations
- Assay type: binding
- Setup Conditions: estimated upper plateau of sigmoidal response curve: how many folds the off-rate of bound radioligand from SERT can be attenuated; N/A = No activity
We'd kindly ask you to apply these Max. Stability (maximum stabilization factor) classes: low bin (below 7), mid bin (7 to below 10), high bin (10 or more)

These recorded examples may help you get a feel for the data.
• C#CCSc1cccc2ccccc12 = high bin
• CCCSc1cccc2ccccc12 = low bin
• CCCOC(=O)c1cccc2ccccc12 = high bin
• COC(=O)c1cccc2ccccc12 = mid bin
• CCOC(=O)n1ccc2ccc(Cl)cc21 = mid bin

q: Which bin should I file CCCCSc1cccc2ccccc12 under?
a: low bin

q: Which bin should I file CCSc1cccc2ccccc12 [Example 13, Ethyl-[1]Naphthyl Sulphide] under?
a: mid bin

q: Which bin should I file CCOC(=O)c1cccc2ccccc12 under?
a: mid bin

q: Which bin should I file C=CCOC(=O)c1cccc2ccccc12 under?
a: high bin

* * *

- Test Target: hSERT (Homo sapiens, UniProt P31645)
- Test Protocol: Dissociation assay with [3H]-citalopram and hSERT membrane preparations
- Type: binding
Test Readout: EC50 (µM)
One number for each entry, in µM.

The measured EC50 associated with CCOS(=O)(=O)c1cccc2ccccc12 [reference compound] reads 120

* * *

- Test Target: hSERT (Homo sapiens, UniProt P31645)
- Test Protocol: Dissociation assay with [3H]-citalopram and hSERT membrane preparations
- Type: binding
- Setup Conditions: concentration of allosteric compound inducing 50% attenuation of the off-rate of the radioligand from SERT; 10 μM fluoxetine in dissociation buffer; read-out: EC50
- Protocol: Dulbecco's modified Eagle's medium, fetal bovine serum, trypsin, and penicillin/streptomycin were purchased from Invitrogen. Cell culture flasks were from NUNC. MicroScint-20 scintillation mixture was from Packard. […] SERT-[^3H]-citalopram complex was formed by incubating hSERT membrane preparation and radioligand in buffer 3 during a 60 min incubation at 4° C. […] Bound radioactivity was determined by direct counting of plates using a Packard Bell microplate scintillation counter. […]
Test Readout: EC50 (µM)
Give bare numbers, in µM.

# annotated cases, reported EC50 shown
• CCSc1cccc2ccccc12 [Example 13, Ethyl-[1]Naphthyl Sulphide] = 9.4
• CC(C)OC(=O)c1cccc2ccccc12 = 9.8
• O=C(OC1CCCC1)c1cccc2ccccc12 = 9.6

Each molecule below has a reported value. Please supply its EC50.
1. CCOC(=O)n1nnc2ccccc21
2. CCOC(=O)n1ccc2ccccc21
3. CCCOc1cccc2ccccc12

a:
1. 61
2. 1.3
3. 46

* * *

- Test Target: hSERT (Homo sapiens)
- Test Protocol: Dissociation assay with [3H]-citalopram and hSERT membrane preparations
- Type: binding
- Setup Conditions: concentration of allosteric compound inducing 50% attenuation of the off-rate of the radioligand from SERT; 10 μM fluoxetine in dissociation buffer; read-out: EC50
Test Readout: EC50 (µM)
Give bare numbers, in µM.

* COC(=O)c1cccc2ccccc12 | 29

Each compound below has a reported value. Please supply its EC50.
1. CCCOC(=O)c1cccc2ccccc12
2. CCOC(=O)n1cc(C)c2ccccc21
3. CCCCSc1cccc2ccccc12

a:
1: 2.1; 2: 5; 3: 12
